target: F16′L ELIC (Dickeya chrysanthemi, UniProt P0C7B7, F246L)
Construct: expressed in transfected cells; host or cells: Xenopus laevis oocytes (cRNA injection)
experiment: GABA activation of F16′L ELIC, two-electrode voltage clamp in Xenopus oocytes
Format: cell-based, Erwinia chrysanthemii
conditionSummary: GABA EC50, F16′L ELIC
quantityName: pEC50
# pEC50: negative log10 of molar concentration; output just the value

Could you share which pEC50 value was measured for `NCCCC(=O)O` ?
1.29

###

target: F16′L ELIC (Dickeya chrysanthemi, UniProt P0C7B7, F246L)
Construct: expressed in transfected cells; host or cells: Xenopus laevis oocytes (cRNA injection)
experiment: GABA activation of F16′L ELIC, two-electrode voltage clamp in Xenopus oocytes
Format: cell-based, Erwinia chrysanthemii
conditionSummary: GABA pEC50, F16′L ELIC
quantityName: pEC50
# pEC50: negative log10 of molar concentration; output just the value

Could you share which pEC50 value was measured for `NCCCC(=O)O` ?
1.29

###

target: T6′A ELIC (Dickeya chrysanthemi, UniProt P0C7B7, T236A)
Construct: expressed in transfected cells; host or cells: Xenopus laevis oocytes (cRNA injection)
experiment: Inhibition of GABA-elicited currents of T6′A ELIC in Xenopus oocytes
Format: cell-based, Erwinia chrysanthemii
quantityName: pIC50
# pIC50: negative log10 of molar concentration; output just the value

Could you share which pIC50 value was measured for `C=C(C)[C@@H]1[C@H]2OC(=O)[C@@H]1[C@]1(O)C[C@H]3O[C@]34C(=O)O[C@H]2[C@]14C` ?
4.02

###

target: F16′E ELIC (Dickeya chrysanthemi, UniProt P0C7B7, F246E)
experiment: Inhibition of GABA-elicited currents of F16′E ELIC in Xenopus oocytes
quantityName: IC50 (µM)
Kindly answer with a numeric value in µM, unit omitted.

Could you share which IC50 value was measured for `C=C(C)[C@@H]1[C@H]2OC(=O)[C@@H]1[C@]1(O)C[C@H]3O[C@]34C(=O)O[C@H]2[C@]14C` ?
26.9

###

target: F16′T ELIC (Dickeya chrysanthemi, UniProt P0C7B7, F246T)
Construct: expressed in transfected cells; host or cells: Xenopus laevis oocytes (cRNA injection)
experiment: GABA activation of F16′T ELIC, two-electrode voltage clamp in Xenopus oocytes
Type: cell-based, Erwinia chrysanthemii
conditionSummary: GABA EC50, F16′T ELIC
quantityName: EC50 (mM)
Kindly answer with a numeric value in mM, unit omitted.

What value of EC50 on F16′T ELIC (Dickeya chrysanthemi, UniProt P0C7B7, F246T) does `NCCCC(=O)O` have?
11

###

target: F16′S/T6′S ELIC (Dickeya chrysanthemi, UniProt P0C7B7, F246S/T236S)
experiment: GABA activation of F16′S/T6′S ELIC, two-electrode voltage clamp in Xenopus oocytes
quantityName: pEC50
# pEC50: negative log10 of molar concentration; output just the value

What value of pEC50 on F16′S/T6′S ELIC (Dickeya chrysanthemi, UniProt P0C7B7, F246S/T236S) does `NCCCC(=O)O` have?
2.19

###

target: F16′Q ELIC (Dickeya chrysanthemi, UniProt P0C7B7, F246Q)
experiment: GABA activation of F16′Q ELIC, two-electrode voltage clamp in Xenopus oocytes
quantityName: EC50 (mM)
Kindly answer with a numeric value in mM, unit omitted.

Could you share which EC50 value was measured for `NCCCC(=O)O` ?
7.76
